Source listed as the nanobody polyreactivity screen of Harvey et al. (2022).

Assay Overview: yeast display, Sf9 membrane polyspecificity reagent, FACS + sequencing; frameworks hold sequencing errors
Measured Parameter: polyreactivity (PSR sort gate)

Worked cases, polyreactivity (PSR sort gate) given:
Could you tell me which polyreactivity (PSR sort gate) is on file for QVQLVESGGGLVQAGGSLRLSCAASGSTLYYYAMGWYRQAPGKERELVASITGSGGNTYYADSVKGRFTISRDNAKNTVYLQMNSLKPEDTAVYYCAKRHFYRHGAYGYWGQGTQVTVSS ?
high polyreactivity

Now the sequence QVQLVESGGGLVQAGGSLRLSCAASGRIIGYYAMGWYRQAPGKERELGAAITRGGSTNYADSVKGRFTISRDNAKNTVYLQMNSLKPEDTAVYYCAADLARYGKRYDYWGQGTQVTVSS
low polyreactivity

Now the sequence QVQLVESGGGIVQAGGSLRLSCAASGFIFNTNAMGWYRQAPGKERELVAGISRSGVRTYYADSVKGRFTISRDNAKNTVYLQMNSLKPEDTAVYYCAATSLPRYYYWGQGTQVTVSS
low polyreactivity

Now the sequence QVQLVESGGGLVQAGGSLRLSCAASGLTFKSNAMGWYRPAPGKERELVASISKRGGTTYYADSVKGRFTISRDNAKNTVYLQMNSLKPEDTAVYYCAAQSRATTYSWWTGSDYWGQGTQVTVSS
high polyreactivity

# next sequence below
Could you tell me which polyreactivity (PSR sort gate) is on file for QVQLVESGGGLVQAGGSLRLSCAASGSTFQLYAMGWYRQAPGKERELVAAISGIGDSTYYADSVKGRFTISRDNAKYTVYLQMNSLKPEDTAVYYCAREFCDGLSGKFDYWGQGTQVNVSS ?
low polyreactivity
